Measured values drawn from patent US6156700A for this set.

- Tested on: ECHORC Watergrass (Calif.)
- assayMethodText: Preemergence weed control, flooded paddy (Table III)
- Type: in vivo, Echinochloa oryzoides
- Set-up: scale not given here
- cond: 0.2500 kg/ha
Please provide measured herbicidal effect rating for the entries that follow.
One number for each entry.

Memo: Cc1nsc2ccc(-n3c(=O)cc(C(F)(F)F)n(C)c3=O)cc12 , reported herbicidal effect rating: 9.0

Memo: COC(=O)COc1ccc(C)cc1-c1nsc2ccc(-n3c(=O)cc(C(F)(F)F)n(C)c3=O)cc12 , reported herbicidal effect rating: 9.0

Memo: COc1cc(C)ccc1-c1nsc2ccc(-n3c(=O)cc(C(F)(F)F)n(C)c3=O)cc12 , reported herbicidal effect rating: 9.0

Memo: COC(=O)COc1cc(C)ccc1-c1nsc2ccc(-n3c(=O)cc(C(F)(F)F)n(C)c3=O)cc12 , reported herbicidal effect rating: 9.0

Memo: COc1ccc(C)cc1-c1nsc2ccc(-n3c(=O)cc(C(F)(F)F)n(C)c3=O)cc12 , reported herbicidal effect rating: 9.0

Memo: COC(=O)C(C)Oc1cc(C)ccc1-c1nsc2ccc(-n3c(=O)cc(C(F)(F)F)n(C)c3=O)cc12 (stereo not drawn) , reported herbicidal effect rating: 9.0

Memo: Cn1c(C(F)(F)F)cc(=O)n(-c2ccc3snc(-c4ccccc4)c3c2)c1=O , reported herbicidal effect rating: 9.0

Memo: Cc1cc(O)c(-c2nsc3ccc(-n4c(=O)cc(C(F)(F)F)n(C)c4=O)cc23)cc1C , reported herbicidal effect rating: 8.0

Memo: COC(=O)COc1cc(C)c(C)cc1-c1nsc2ccc(-n3c(=O)cc(C(F)(F)F)n(C)c3=O)cc12 , reported herbicidal effect rating: 9.0

Memo: COC(=O)C(C)Oc1ccc(C)cc1-c1nsc2ccc(-n3c(=O)cc(C(F)(F)F)n(C)c3=O)cc12 (stereo not drawn) , reported herbicidal effect rating: 9.0

Value sought for every listed molecule: herbicidal effect rating.
1. CCc1ccc(-c2nsc3ccc(-n4c(=O)cc(C(F)(F)F)n(C)c4=O)cc23)cc1
2. COC(=O)C(C)Oc1cc(C)c(C)cc1-c1nsc2ccc(-n3c(=O)cc(C(F)(F)F)n(C)c3=O)cc12 (stereo not drawn)

1: 9.0; 2: 9.0
